System: SF-268 CNS
Assay: NCI tumour cell line growth inhibition, 48 h; in the data active means GI50 below about 0.43 µM; inactive means the rest
Tick one outcome: active, inactive

Exercise: // outcome(item) with item = C#Cc1cnc(=O)n(C2CC(O)C(CO)O2)c1 (stereo not given)
Key: inactive

Exercise: // outcome(item) with item = Cc1nn(-c2ccc(S(=O)(=O)[O-])cc2)c([O-])c1N=[N+](C)c1ccc(-c2ccc(N=Nc3ccc4c(S(=O)(=O)[O-])cc(S(=O)(=O)[O-])c(N)c4c3[O-])c([O-])c2)cc1[O-].[Cu+2].[Cu+2].[Na+]
Key: inactive

Exercise: // outcome(item) with item = O=C(Nc1cccc(-n2ccc3c(NC(=O)c4ccccc4)nccc32)c1)c1cccc(C(F)(F)F)c1
Key: active

Exercise: // outcome(item) with item = O=C(/C=C/c1ccc(Cl)cc1)c1ccc(Cl)cc1Cl
Key: inactive

Exercise: // outcome(item) with item = O=C(CSc1nc2ccc([N+](=O)[O-])cc2[nH]1)Nc1ccc(F)c(Cl)c1
Key: inactive

Exercise: // outcome(item) with item = COc1ccc(C(=S)N2CCN(c3cccc(Cl)c3)CC2)cc1
Key: inactive

Exercise: // outcome(item) with item = Clc1ccccc1C(c1ccccc1)(c1ccccc1)n1ccnc1
Key: inactive

Exercise: // outcome(item) with item = C=CC(=O)Nc1cccc(-c2nc(SC)nc(Nc3ccccc3OC)c2C#N)c1
Key: inactive

Exercise: // outcome(item) with item = Cc1ccc2c(C(C[N+](=O)[O-])c3cccs3)c(-c3ccccc3)[nH]c2c1 (stereo not given)
Key: inactive

Exercise: // outcome(item) with item = COc1cc(C(=O)NC2c3ccccc3-c3ccccc32)c(N)cc1OCc1ccccc1
Key: inactive

Exercise: // outcome(item) with item = CN=C(N)N/N=C(\c1ccccc1)c1ccc(Br)cc1
Key: inactive

Exercise: // outcome(item) with item = COc1ccc2cc1Oc1ccc(cc1)C[C@H]1c3cc(c(OC)cc3CCN1C)Oc1c(OC)c(OC)cc3c1[C@H](C2)N(C)CC3
Key: inactive

Exercise: // outcome(item) with item = O=C(NNc1nc2c(F)cccc2n2cccc12)c1cnccn1
Key: inactive

Exercise: // outcome(item) with item = O=C(c1ccc2ccccc2c1)c1c(C(F)(F)F)n([O-])c2cc(Cl)c(Cl)cc2[n+]1=O
Key: inactive

Exercise: // outcome(item) with item = CCn1c(-c2nonc2N)nc2c(C#CCN)ncc(OCCCN)c21
Key: inactive

Exercise: // outcome(item) with item = CNC(=O)c1ccccc1CC1(O)c2ccccc2Oc2ccccc21
Key: inactive

Exercise: // outcome(item) with item = CC(C)(C)c1cc(O)c(O)c(C(C)(C)C)c1
Key: inactive

Exercise: // outcome(item) with item = C=CC(=O)N[C@H]1C=C(C)c2c(-c3cnc4ccccc4c3)c3c(N)ncnc3n2C1
Key: inactive

Exercise: // outcome(item) with item = COC(=O)C1OC(O[C@H]2CCC3(C)C(CCC4(C)C3CC=C3C5CC(C)(C)CCC5(C(=O)O)CC[C@]34C)C2(C)C)C(O)C(OC2OC(CO)C(O)C(O)C2O)C1O (stereo not given in full)
Key: inactive

Exercise: // outcome(item) with item = O=C(c1cccs1)c1c(C(F)(F)F)n([O-])c2ccccc2[n+]1=O
Key: active

----------
Test system: HS 578T breast
Experiment: NCI tumour cell line growth inhibition, 48 h
readout: TGI (µM)
Answer with a number only, understood to be in µM.

Exercise: // lookup TGI | system=HS 578T breast | key= Cc1nn(-c2ccc(F)cc2)c2ncnc(Nc3ccc(NC(=O)Nc4ccc(Cl)c(C(F)(F)F)c4)cc3)c12
Key: 9.47

Exercise: // lookup TGI | system=HS 578T breast | key= COc1ccc(-c2nn(-c3cccc(Cl)c3)cc2C2CC(c3ccccc3)=NN2C(C)=O)cc1 (stereo not drawn)
Key: 20.1

Exercise: // lookup TGI | system=HS 578T breast | key= [N-]=[N+]=Nc1c(Cl)c(=O)n(-c2ccccc2)c2ccccc12
Key: 76.9

Exercise: // lookup TGI | system=HS 578T breast | key= C=C1C(=O)O[C@H]2[C@H]1CC/C(CNC(=O)c1c[nH]c3ccc(F)cc13)=C\CC[C@@]1(C)O[C@@H]21
Key: 13.1

----------
I'd appreciate it if you could supply GI50 values for the items below.
Tested on: NCI/ADR-RES ovarian
Assay: NCI tumour cell line growth inhibition, 48 h

Exercise: Need GI50, item C#Cc1cnc(=O)n(C2CC(O)C(CO)O2)c1 (configuration not stated)
Key: > 100000 nM

Exercise: Need GI50, item CN1CCN(Cc2ccc(C(=O)Nc3cncc(C#Cc4cnc(N)c5ccccc45)c3)cc2C(F)(F)F)CC1
Key: 1930 nM

Exercise: Need GI50, item CCn1c(-c2nonc2N)nc2c(C#CCN)ncc(OCCCN)c21
Key: > 25000 nM

Exercise: Need GI50, item N#Cc1c(NC(=O)c2cccc(C(F)(F)F)c2)sc2c1CCC(=O)C2
Key: 1620 nM

Exercise: Need GI50, item O=C(NNc1nc2c(F)cccc2n2cccc12)c1cnccn1
Key: 327 nM

Exercise: Need GI50, item CCC(C)C1NC(=O)c2nc(oc2-c2ccccc2)-c2csc(n2)-c2csc(n2)-c2nc(oc2C)-c2coc(n2)CNC(=O)C(C(C)CC)NC1=O (configuration not stated)
Key: 278 nM

Exercise: Need GI50, item CC(=O)OCC1OC(O[C@@H]2C[C@H]3C(C)(C)[C@H](OC(C)=O)CC[C@]3(C)[C@H]3CCC4=C([C@@H](C)C[C@@H](O)[C@H](O)C(C)(C)O)CC[C@@]4(C)[C@@]32C)C(O)C(O)C1O (some centres not stated)
Key: 20400 nM

Exercise: Need GI50, item COc1cc(C(=O)NC2c3ccccc3-c3ccccc32)c(N)cc1OCc1ccccc1
Key: 35300 nM

Exercise: Need GI50, item CNC(=O)c1ccccc1CC1(O)c2ccccc2Oc2ccccc21
Key: 10100 nM

Exercise: Need GI50, item COc1ccc(C(=O)Nc2ncc(Cc3ccc(Cl)cc3)s2)cc1
Key: 45.7 nM

Exercise: Need GI50, item CN=C(N)N/N=C(\c1ccccc1)c1ccc(Br)cc1
Key: 322 nM

Exercise: Need GI50, item O=C(/C=C/c1ccc(Cl)cc1)c1ccc(Cl)cc1Cl
Key: 331 nM

Exercise: Need GI50, item O=C(c1ccc2ccccc2c1)c1c(C(F)(F)F)n([O-])c2cc(Cl)c(Cl)cc2[n+]1=O
Key: 1800 nM

Exercise: Need GI50, item O=C(CSc1nc2ccc([N+](=O)[O-])cc2[nH]1)Nc1ccc(F)c(Cl)c1
Key: 2310 nM

Exercise: Need GI50, item CN1CCN(CC#Cc2cccc(C(=O)c3cnn(-c4ccc(F)cc4)c3N)c2)CC1
Key: > 25000 nM

Exercise: Need GI50, item NC(CO)Cc1cnc[nH]1 (configuration not stated)
Key: > 100000 nM

Exercise: Need GI50, item COC(=O)C1OC(O[C@H]2CCC3(C)C(CCC4(C)C3CC=C3C5CC(C)(C)CCC5(C(=O)O)CC[C@]34C)C2(C)C)C(O)C(OC2OC(CO)C(O)C(O)C2O)C1O (some centres not stated)
Key: 7240 nM

Exercise: Need GI50, item Nc1n[nH]c2ccc([C@@H]3Nc4ccc5[nH]ncc5c4[C@H]4[C@H]5CCC(C5)[C@H]43)cc12
Key: 525 nM

Exercise: Need GI50, item CCN1CCN(c2nc(NCCCNc3ccnc4cc(Cl)ccc34)c3ccccc3n2)CC1
Key: 15200 nM

Exercise: Need GI50, item CCCCCCCCCCCCCC(=S)NCCCC[C@H](NC(=O)OCc1ccccc1)C(=O)Nc1ccccc1
Key: 5110 nM

Exercise: Need GI50, item Cc1nn(-c2ccc(F)cc2)c2ncnc(Nc3ccc(NC(=O)Nc4ccc(Cl)c(C(F)(F)F)c4)cc3)c12
Key: 2430 nM

Exercise: Need GI50, item CC(C)(C)c1cc(O)c(O)c(C(C)(C)C)c1
Key: 3540 nM

----------
Tested on: RPMI-8226 leukemia
Assay: NCI tumour cell line growth inhibition, 48 h
readout: TGI

Exercise: Need TGI, item [N-]=[N+]=Nc1c(Cl)c(=O)n(-c2ccccc2)c2ccccc12
Key: > 100 µM

Exercise: Need TGI, item COC1OC(=O)[C@H]2O[N+]([O-])=C(C)[C@@H]12 (stereo partly specified)
Key: > 100 µM

Exercise: Need TGI, item CCOc1ccc(NC(=O)CC2Sc3ccccc3NC2=O)cc1 (stereo unspecified)
Key: > 100 µM

Exercise: Need TGI, item O=c1[nH]c2ccccc2cc1C(Cl)=C(Cl)Cl
Key: > 100 µM

Exercise: Need TGI, item FC(F)(F)c1nc(-c2ccccc2Cl)[nH]c1C(F)(F)F
Key: 25.2 µM

Exercise: Need TGI, item Nc1ccccc1Nc1ccccc1C(=O)[O-].Nc1ccccc1Nc1ccccc1C(=O)[O-].[Cu+2]
Key: > 100 µM
